Source listed as patent US12534531.

# ASSAYED_TARGET: soluble cynomolgus monkey PD-1 (scyno PD-1 hFc) cleaved to remove Fc portion (cynomolgus monkey, UniProt B0LAJ3 25-170)
# Sequence (B0LAJ3 entry or part of it limits assumed): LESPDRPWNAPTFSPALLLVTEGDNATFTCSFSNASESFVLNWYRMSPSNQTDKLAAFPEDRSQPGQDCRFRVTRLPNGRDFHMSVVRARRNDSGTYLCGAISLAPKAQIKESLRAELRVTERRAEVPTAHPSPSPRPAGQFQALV
# ASSAY_INFO: Biacore, mAb captured on Protein A, analyte scyno PD-1 hFc cleaved of Fc
// values below are reported pKd
Please note pKd is a logarithmic value: minus log10 of concentration in mol/L. Answer with that number alone.

PD-1 mAb 9 (antibody, V domains shown, Murine monoclonal antibody) VH: EVMLVESGGGLVKPGGSLKLSCAASGFTFSSYLVSWVRQTPEKRLEWVATISGGGGNTYYSDSVKGRFTISRDNAKNTLYLQISSLRSEDTALYYCARYGFDGAWFAYWGQGTLVTVSS VL: DIQMTQSPASLSASVGDIVTITCRASENIYSYLAWYQQKQEKSPQLLVYNAKTLAAGVPSRFSGSGSGTQFSLTINSLQPEDFGNYYCQHHYAVPWTFGGGTRLEIT = 7.14

Ask: Return reported pKd; argument: hPD-1 mAb 15, constant region not named where tested (antibody, V domains shown, also called humanized PD-1 mAb 15) VH: EVQLVESGGGLVRPGGSLRLSCAASGFTFSSYLISWVRQAPGKGLEWVAAISGGGADTYYADSVKGRFTISRDNAKNSLYLQMNSLRAEDTATYYCARRGTYAMDYWGQGTLVTVSS VL: DIQMTQSPSSLSASVGDRVTITCLASQTIGTWLAWYQQKPGKAPKLLIYAATSLADGVPSRFSGSGSGTDFTFTISSLQPEDFATYYCQQLYSIPWTFGQGTKLEIK
Result: 7.11

Ask: Return reported pKd; argument: PD-1 mAb 2 (antibody, V domains shown, Murine monoclonal antibody) VH: DVQLVESGGGLVQPGGSRKLSCAASGFVFSSFGMHWVRQAPEKGLEWVAYISSGSMSISYADTVKGRFTVTRDNAKNTLFLQMTSLRSEDTAIYYCASLSDYFDYWGQGTTLTVSS VL: DVVMSQTPLSLPVSLGDQASISCRSSQSLVHSTGNTYLHWYLQKPGQSPKLLIYRVSNRFSGVPDRFSGSGSGTDFTLKISRVEAEDLGVFFCSQTTHVPWTFGGGTKLEIK
Result: 7.84

Ask: Return reported pKd; argument: hPD-1 mAb 9 (1.1), constant region not named where tested (antibody, V domains shown) VH: EVQLVESGGGLVRPGGSLKLSCAASGFTFSSYLVSWVRQAPGKGLEWVATISGGGGNTYYSDSVKGRFTISRDNAKNSLYLQMNSLRAEDTATYYCARYGFDGAWFAYWGQGTLVTVSS VL: DIQMTQSPSSLSASVGDRVTITCRASENIYSYLAWYQQKPGKAPKLLIYNAKTLAAGVPSRFSGSGSGTDFTLTISSLQPEDFATYYCQHHYAVPWTFGQGTKLEIK
Result: 7.13

Ask: Return reported pKd; argument: hPD-1 mAb 2, constant region not named where tested (antibody, V domains shown, also called humanized PD-1 mAb 2) VH: EVQLVESGGGLVQPGGSLRLSCAASGFVFSSFGMHWVRQAPGKGLEWVAYISSGSMSISYADTVKGRFTISRDNAKNTLYLQMNSLRTEDTALYYCASLSDYFDYWGQGTTVTVSS VL: DVVMTQSPLSLPVTLGQPASISCRSSQSLVHSTGNTYLHWYLQKPGQSPQLLIYRVSNRFSGVPDRFSGSGSGTDFTLKISRVEAEDVGVYYCSQTTHVPWTFGQGTKLEIK
Result: 7.77
